IC50 by entry:
- test-system: human immunoglobulin E (hIgE) (human) (UniProt P01854)
- Sequence (P01854 whole entry): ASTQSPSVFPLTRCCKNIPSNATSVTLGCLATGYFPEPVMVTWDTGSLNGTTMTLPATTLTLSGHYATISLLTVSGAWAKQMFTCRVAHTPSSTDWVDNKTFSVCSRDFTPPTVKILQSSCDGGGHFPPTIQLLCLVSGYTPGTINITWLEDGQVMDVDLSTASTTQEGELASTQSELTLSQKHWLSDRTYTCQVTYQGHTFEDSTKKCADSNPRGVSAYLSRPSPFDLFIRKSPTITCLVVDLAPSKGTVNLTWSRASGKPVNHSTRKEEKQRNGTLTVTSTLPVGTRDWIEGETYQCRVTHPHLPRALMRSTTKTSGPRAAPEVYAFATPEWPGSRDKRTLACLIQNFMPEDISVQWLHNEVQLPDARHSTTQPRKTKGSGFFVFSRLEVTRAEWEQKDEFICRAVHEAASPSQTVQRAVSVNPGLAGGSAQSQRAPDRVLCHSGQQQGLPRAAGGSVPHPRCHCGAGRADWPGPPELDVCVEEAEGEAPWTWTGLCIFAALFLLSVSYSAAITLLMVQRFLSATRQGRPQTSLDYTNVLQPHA
- procedure-details: SPR competition, hIgE over hFcεRIα chip, pH 6 (text: pH 5.5)

binder | IC50 (µg/mL)
18B9His-hIgG1-WT (antibody, V domains shown) VH: QVQLVESGGGLVQPGGSLRLSCAASGFTFSSYVMSWVRQAPGKGLEWVSSIYSDGSHTYYADSVKGRFTISRDNAKNTLYLQMNSLKSEDTAVYYCAKNLEHYSGSYYYTDPRYDYWGQGTQVTVSS VL: SSALTQPSALSVTLGQTAKITCQGGSLGSSYVHWYQQKPGQAPVLVIHDGDSRPSGIPERFSGSSSGGTATLTISGAQAEDEDDYYCQSADSSGNAVFGGGTHLTVL | 58.5
18E2His2-hIgG1-WT (antibody, V domains shown) VH: QLQLVESGGGLVQPGGSLRLSCAASGFTFSSYVMHWVRQAPGKGLEWVSSIYHDGSHTYYADFVKGRFTISRDNAKNTLYLQMNSLKSEDTAVYYCASGTSYSGSYYYTDPFFGSWGQGTQVTVSS VL: NFMLTQPSALSVTLGQTARITCQGDRLGSRYIHWYQQKPPQAPVLVIHDDDRRPSGIPERFSGSSSGGTATLTISGAQAEDDGDYYCQSADSSGNPVFGGGTHLTVL | 6310
13E4-hIgG1-WT (antibody, V domains shown) VH: ELQLVESGGGLVQPGGSLRLSCAASGFTFSSYVMSWVRQAPGKGLEWVSSIYHDGSHTYYADFVKGRFTISRDNAKNTLYLQMNSLKSEDTAVYYCASGTSYSGSYYYTDPFFGSWGQGTQVTVSS VL: HSAVTQPSALSVTLGQTAKITCQGGSLGSNYAYWYQQKPGQAPVLVIYDDDSRPSGIPERFSGSSSGGTATLTISGAQAEDEGDYYCQSADSNGNAVFGGGTHLTVL | 2.5
13E4-hIgG1-ABDEG (antibody, V domains shown) VH: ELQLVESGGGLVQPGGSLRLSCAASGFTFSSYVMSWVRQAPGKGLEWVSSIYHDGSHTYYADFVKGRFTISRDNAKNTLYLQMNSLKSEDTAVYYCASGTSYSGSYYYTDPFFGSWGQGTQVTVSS VL: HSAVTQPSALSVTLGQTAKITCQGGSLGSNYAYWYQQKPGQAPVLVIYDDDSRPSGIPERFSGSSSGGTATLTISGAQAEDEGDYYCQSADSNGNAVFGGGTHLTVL | 3.2
18E2His2-hIgG1-ABDEG (antibody, V domains shown) VH: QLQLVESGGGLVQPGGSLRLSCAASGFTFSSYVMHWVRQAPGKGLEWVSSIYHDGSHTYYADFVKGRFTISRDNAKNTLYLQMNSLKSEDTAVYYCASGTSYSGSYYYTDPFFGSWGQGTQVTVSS VL: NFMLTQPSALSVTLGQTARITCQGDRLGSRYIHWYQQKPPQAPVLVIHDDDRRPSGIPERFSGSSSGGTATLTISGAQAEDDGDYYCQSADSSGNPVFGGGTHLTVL | 7320
18B9His-hIgG1-ABDEG (antibody, V domains shown) VH: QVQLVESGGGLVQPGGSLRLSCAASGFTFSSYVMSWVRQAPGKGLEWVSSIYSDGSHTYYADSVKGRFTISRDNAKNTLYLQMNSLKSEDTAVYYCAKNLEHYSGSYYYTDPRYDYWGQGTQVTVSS VL: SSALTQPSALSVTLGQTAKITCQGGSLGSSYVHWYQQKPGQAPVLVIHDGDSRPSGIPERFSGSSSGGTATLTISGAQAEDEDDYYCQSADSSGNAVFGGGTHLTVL | 52.9
